# studyTarget: T1, tail-chimeric peptide IhfA3-IhfB2NTHI (nontypeable Haemophilus influenzae …)
# T1 construct: also called IHF(NTHI) tail chimeric peptide; IHFNTHI tail chimeric peptide
# T1 peptide: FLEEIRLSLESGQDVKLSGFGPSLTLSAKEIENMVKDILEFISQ
# protocol: direct ELISA #2, peptide coated (curves reaching equilibrium)
assayEndpoint: EC50 (µg/mL)
API: value field is a number in µg/mL; no unit string.

Supply measured EC50 of humanized anti-tail monoclonal antibody, heavy chain SEQ ID NO: 4 and light chain SEQ ID NO: 11 (antibody, V domains shown, also called H10213 (11E7.C7 Humanized HC1) + L10214 (11E7.C7 Humanized LC2)) VH: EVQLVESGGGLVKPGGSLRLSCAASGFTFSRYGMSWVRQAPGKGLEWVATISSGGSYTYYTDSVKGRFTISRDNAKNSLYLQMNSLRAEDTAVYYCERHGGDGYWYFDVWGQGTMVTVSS VL: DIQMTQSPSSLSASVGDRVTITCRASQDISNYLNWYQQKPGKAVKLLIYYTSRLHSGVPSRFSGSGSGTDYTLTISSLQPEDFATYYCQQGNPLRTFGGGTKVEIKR in your reply.
0.0408

Output EC50 of humanized anti-tail monoclonal antibody, heavy chain SEQ ID NO: 4 and light chain SEQ ID NO: 10 (antibody, V domains shown, also called HuTailMab; TP-21958) VH: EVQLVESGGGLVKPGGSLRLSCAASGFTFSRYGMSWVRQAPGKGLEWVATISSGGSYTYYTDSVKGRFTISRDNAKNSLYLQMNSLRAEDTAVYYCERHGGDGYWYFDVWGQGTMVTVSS VL: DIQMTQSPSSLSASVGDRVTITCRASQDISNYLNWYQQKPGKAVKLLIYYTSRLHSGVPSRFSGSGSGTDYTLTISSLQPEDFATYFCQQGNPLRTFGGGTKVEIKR
0.0427

Dear colleague, please send me the reported EC50 for humanized anti-tail monoclonal antibody, heavy chain SEQ ID NO: 6 and light chain SEQ ID NO: 12 (antibody, V domains shown, also called H10215 (11E7.C7 Humanized HC3) + L10215 (11E7.C7 Humanized LC3)) VH: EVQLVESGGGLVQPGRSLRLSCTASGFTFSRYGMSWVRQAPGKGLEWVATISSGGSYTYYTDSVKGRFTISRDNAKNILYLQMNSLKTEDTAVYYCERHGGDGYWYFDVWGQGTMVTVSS VL: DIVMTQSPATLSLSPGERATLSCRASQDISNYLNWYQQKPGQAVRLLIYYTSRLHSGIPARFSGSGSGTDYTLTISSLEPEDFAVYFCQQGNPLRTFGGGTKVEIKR when you can.
0.0294
